Assignment: determine reported % Positive cells for the given binders.
measurement-target: T1, human CCR8 (human, UniProt P51685 1-355)
T1 construct: Native CCR8 on human PBMC (CCR8+ CD3+ or CCR8+ CD4+ lymphocytes); also called chemokine (C-C motif) receptor 8
T1 sequence (P51685 whole entry): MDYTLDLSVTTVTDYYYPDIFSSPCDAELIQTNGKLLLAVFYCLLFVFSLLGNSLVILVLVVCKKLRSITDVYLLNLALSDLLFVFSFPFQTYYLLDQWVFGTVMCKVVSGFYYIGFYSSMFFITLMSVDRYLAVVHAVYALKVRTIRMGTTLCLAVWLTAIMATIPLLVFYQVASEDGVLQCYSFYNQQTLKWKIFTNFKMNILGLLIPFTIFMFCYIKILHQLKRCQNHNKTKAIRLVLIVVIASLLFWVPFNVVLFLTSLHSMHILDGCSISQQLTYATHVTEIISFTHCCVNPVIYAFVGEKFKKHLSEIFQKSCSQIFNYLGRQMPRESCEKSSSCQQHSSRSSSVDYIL
experimental-protocol: flow blocking, PBMC CCR8+CD4+; competitor PE-AB14
Write down the numeric answer in % and omit the unit.

## Task State, in one line, measured % Positive cells of AB8 (antibody, V domains shown, Hybridoma monoclonal; also called antibody 8; clone 8) VH: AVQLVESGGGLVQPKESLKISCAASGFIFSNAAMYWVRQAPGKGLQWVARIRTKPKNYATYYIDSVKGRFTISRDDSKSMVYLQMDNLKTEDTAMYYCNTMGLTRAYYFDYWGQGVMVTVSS VL: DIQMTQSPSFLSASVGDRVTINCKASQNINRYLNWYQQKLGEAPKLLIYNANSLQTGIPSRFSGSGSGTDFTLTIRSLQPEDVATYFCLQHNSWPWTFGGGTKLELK
## Result 0.04

## Task Look up and state reported % Positive cells for AB10 (antibody, V domains shown, Hybridoma monoclonal; also called antibody 10; clone 10) VH: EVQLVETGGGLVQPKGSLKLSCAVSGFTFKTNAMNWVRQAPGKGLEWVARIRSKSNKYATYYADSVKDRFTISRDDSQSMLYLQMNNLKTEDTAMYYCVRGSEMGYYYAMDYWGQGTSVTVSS VL: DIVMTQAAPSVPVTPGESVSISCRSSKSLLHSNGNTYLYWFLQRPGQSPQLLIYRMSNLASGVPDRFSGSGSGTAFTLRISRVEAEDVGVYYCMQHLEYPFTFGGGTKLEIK
## Result 0.14

## Task Input AB2 (antibody, V domains shown, Hybridoma monoclonal; Same VH/VL entries as AB1; also called antibody 2; clone 2) VH: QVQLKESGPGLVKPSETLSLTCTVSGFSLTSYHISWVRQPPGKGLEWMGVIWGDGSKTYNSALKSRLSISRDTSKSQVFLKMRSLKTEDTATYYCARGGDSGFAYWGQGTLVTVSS VL: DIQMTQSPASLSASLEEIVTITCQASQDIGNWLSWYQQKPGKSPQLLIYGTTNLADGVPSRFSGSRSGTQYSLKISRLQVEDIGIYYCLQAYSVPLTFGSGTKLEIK , output reported % Positive cells.
## Result 1.5

## Task Let me know recorded % Positive cells for AB3 (antibody, V domains shown, Hybridoma monoclonal; also called antibody 3; clone 3) VH: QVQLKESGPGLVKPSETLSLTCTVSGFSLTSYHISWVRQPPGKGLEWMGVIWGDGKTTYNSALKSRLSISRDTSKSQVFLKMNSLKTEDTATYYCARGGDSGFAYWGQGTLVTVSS VL: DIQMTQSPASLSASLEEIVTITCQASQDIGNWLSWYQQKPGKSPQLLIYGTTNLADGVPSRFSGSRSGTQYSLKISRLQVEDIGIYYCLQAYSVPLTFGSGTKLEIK , thanks.
## Result 1.46

## Task Quote % Positive cells reported for AB4 (antibody, V domains shown, Hybridoma monoclonal; also called antibody 4; clone 4) VH: QVQLKESGPGLVKPSETLSLTCTVSGFSLTGYHVSWVRQPPGKGLEWMGVIWGDGRTTYNSALKSRLSISRDTSKSQVFLKMSSLKTEDTATYYCARGGDSGFAYWGQGTLVTVSS VL: DIQMTQSPASLSASLEEIVTITCQASQDIGNWLSWYQQKPGKSPQLLIYGATSLADGVPSRFSGSRSGTQFSLKISRLQVEDIGIYYCLQAYIVPLTFGSGTKLESK please.
## Result 1.5

## Task Please report % Positive cells for the following binder: AB12 (antibody, V domains shown, Hybridoma monoclonal; also called antibody 12; clone 12) VH: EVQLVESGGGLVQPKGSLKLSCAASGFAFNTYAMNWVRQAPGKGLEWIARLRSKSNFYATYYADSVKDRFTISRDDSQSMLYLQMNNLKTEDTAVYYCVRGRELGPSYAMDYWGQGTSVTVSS VL: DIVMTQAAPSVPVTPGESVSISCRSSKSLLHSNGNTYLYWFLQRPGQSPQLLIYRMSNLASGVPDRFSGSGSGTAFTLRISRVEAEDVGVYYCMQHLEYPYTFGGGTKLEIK
## Result 0

## Task Respond only with % Positive cells recorded for AB15 (antibody, V domains shown, Hybridoma monoclonal; Same VH/VL entries as AB14; also called antibody 15; clone 15) VH: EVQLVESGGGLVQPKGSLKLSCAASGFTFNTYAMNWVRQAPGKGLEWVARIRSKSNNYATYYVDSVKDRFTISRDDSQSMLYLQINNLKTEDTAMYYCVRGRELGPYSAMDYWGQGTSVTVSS VL: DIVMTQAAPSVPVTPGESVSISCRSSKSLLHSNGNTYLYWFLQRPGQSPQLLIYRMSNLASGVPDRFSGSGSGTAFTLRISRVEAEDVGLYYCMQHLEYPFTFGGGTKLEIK
## Result 0.01
